assay: Bmi1 luciferase reporter increase in mESCs, primary screen, esBAF inhibitor project, mouse ES cells, Bmi1 luciferase knock-in, single point (AID 602393); conditions: 24 h, at 12.5 µM, active compounds read high, 100% = twice the neutral-well signal;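 note: 0% = median of the plate's neutral control wells and 100% = double that signal; a rise in the Bmi1 reporter signal indicates esBAF inhibition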
The whole screen tested about 350,000 compounds, of which about 7,000 (2%) were called active. The list comes from a sample in which actives are over-represented; it also holds close analogues and randomly drawn compounds.
reported.endpoint: reporter increase (%)

compound	observed
CC(=O)Nc1ccc(NC(=O)CN2CCCC(C)C2)c(Cl)c1 (stereo not given)	49.7
COCC1CCN(C(=O)CCc2nnc(C3(c4ccc(Cl)cc4)CCC3)o2)C1 (stereo not given)	52
COC(=O)C[C@H]1CC[C@@H](NC(=O)c2ccccc2)[C@@H](CO)O1	-2.05
O=C(NC(Cc1c[nH]c2ccccc12)C(=O)N/N=C/c1ccc(Br)cc1)c1cccs1 (stereo not given)	4.44
C[C@H]1CN([C@@H](C)CO)C(=O)Cc2cc(NC(=O)Nc3ccc(F)cc3)ccc2O[C@H]1CN(C)S(=O)(=O)c1ccc(F)cc1	1.01
O=C(N/N=C/c1cccc(Br)c1)c1ccc(N2CCCC2=O)cc1	7.79
CCC(=O)Nc1ccc2c(c1)OC[C@H](C)N(Cc1ccccc1F)C[C@H](C)[C@@H](OC)CN(C)C2=O	0.435
CC1CCCN(CC(=O)Nc2cc(Cl)ccc2Oc2ccccc2)C1 (stereo not given)	0.159
O=C(NCCc1c[nH]c2ccccc12)c1cccc(Br)c1	11.6
O=C(N/N=C/c1c[nH]c2ccccc12)c1ccccc1O	51.9
